System: Fibroblast
Assay: Multiplex assay against human fibroblast
Type: toxicity, cell-based
Conditions: 12 h, 1 µM, compound concentration 1 uM, replicate 2
Reported Population Hoechst High Intensity Objects (%) values for the following compounds.
QUANTITY NAME: Population Hoechst High Intensity Objects (%)

| COMPOUND | UOM | MEAS VALUE |
| --- | --- | --- |
| COc1cccc([C@@H](C)NCCCc2ccccc2Cl)c1.Cl [TECALCET HYDROCHLORIDE] | % | 10 |
| CN(C)C(=O)/C(C#N)=C/c1ccc(-c2nc3cnc4[nH]ccc4c3n2C2CCCCC2)o1 | % | 2 |
| C=CC(=O)Nc1cccc(C(=O)Nc2ccc(Nc3cc(-c4[nH]c(SC)nc4C)ccn3)cc2)c1 | % | 14 |
| CC(C)(O)CNc1ncc(-c2ccnc(Nc3ccnc(Cl)c3)n2)c(CC2CC2)n1 | % | 5 |
| C=CC(=O)Nc1ccc2ncnc(Nc3ccc(OCc4cccc(F)c4)c(Cl)c3)c2c1.Cc1ccc(S(=O)(=O)O)cc1 | % | 5 |
| O=C1NCN(c2ccccc2)C12CCN(CCCOc1ccc(F)cc1)CC2 [SPIRAMIDE] | % | 7 |
| CCN(CC)CCCCNc1ncc2cc(-c3cc(OC)cc(OC)c3)c(NC(=O)NC(C)(C)C)nc2n1 | % | 72 |
| Cl.N#Cc1ccc2[nH]cc(CCCCN3CCN(c4ccc5oc(C(N)=O)cc5c4)CC3)c2c1 [VILAZODONE HYDROCHLORIDE] | % | 2 |

###

Test system: Fibroblast
Test: Multiplex assay against human fibroblast
Type: toxicity, cell-based
Conditions: 12 h, 10 µM, compound concentration 10 uM, replicate 2
Reported Population Healthy Nuclei (%) values for the following compounds.

| COMPOUND | Population Healthy Nuclei (%) |
| --- | --- |
| C[C@@H](NCCCc1cccc(C(F)(F)F)c1)c1cccc2ccccc12.Cl [CINACALCET HYDROCHLORIDE] | 23 |
| Cn1cc(-c2[nH]c3cc(NC(=O)[C@H](N)C4CCCCC4)cc4c3c2C=NNC4=O)cn1 | 42 |
| COc1cccc([C@@H](C)NCCCc2ccccc2Cl)c1.Cl [TECALCET HYDROCHLORIDE] | 75 |
| COc1cc(-n2cnc3cc(-c4ccc(Cl)cc4)sc3c2=O)ccc1OCCN1CCCC1 | 57 |
| Cc1nc(Nc2n[nH]c3c2CN(C(=O)N[C@H](CN(C)C)c2ccccc2)C3(C)C)c2sccc2n1 [PF-03758309] | 25 |
| CN1CCC[C@@H]1CCO[C@](C)(c1ccccc1)c1ccc(Cl)cc1.O=C(O)/C=C/C(=O)O [CLEMASTINE FUMARATE] | 41 |
| CNc1nc(NCc2ccc(NS(C)(=O)=O)cc2Cl)cc(-c2ccccn2)n1 | 81 |

###

Test system: HEK-293T
Test: Multiplex assay against HEK293T
Assay type: toxicity, cell-based
Conditions: human, 12 h, 1 µM, compound concentration 1 uM, replicate 1

| COMPOUND | STUDY SYSTEM | Population Healthy Nuclei (%) |
| --- | --- | --- |
| CCN(CC)CCCCNc1ncc2cc(-c3cc(OC)cc(OC)c3)c(NC(=O)NC(C)(C)C)nc2n1 | HEK-293T | 8 |
| C[C@@H](NCCCc1cccc(C(F)(F)F)c1)c1cccc2ccccc12.Cl [CINACALCET HYDROCHLORIDE] | HEK-293T | 49 |
| CN1CCN(CCOc2cc(OC3CCOCC3)c3c(Nc4c(Cl)ccc5c4OCO5)ncnc3c2)CC1 | HEK-293T | 29 |
| Cl.N#Cc1ccc2[nH]cc(CCCCN3CCN(c4ccc5oc(C(N)=O)cc5c4)CC3)c2c1 [VILAZODONE HYDROCHLORIDE] | HEK-293T | 49 |

// data source = ChEMBL document CHEMBL4689842
